assay: yeast display, Sf9 membrane polyspecificity reagent, FACS + sequencing; frameworks hold sequencing errors
READOUT_KIND: polyreactivity (PSR sort gate)

Completed entries (count: 6):
QVQLVESGGALVQAGGSLRLSSAASVSIFTINAMGWYRQAPGKERELVAAISWSGAHTYYADSVKGRFTISRDNAKNTVYVQMNSLKPEDTAVYYCATGYNYLDRNTGYVHRFDYWGQGTQVTVSS :: low polyreactivity
QVQLVESGGGLVQAGGSLRLSCAASGRTFPRYTMGWYRPAPGKERELVAASATGGSTYYADSVKGRFTISRDNAKNTVYLQMNSLKPEDTAVYYCAARPYSNRYVLGVYYWGQGTQVTVSS :: high polyreactivity
QVQLVESGGGLVQAGGSLRLSCAASGYTFVRYAMGWYRQAPGKEREFVASISTSGGSTYYADSVKGRFTISRDNAKNTVYLQMNSLKPEDTAVYYCAAGHVVRRPYLIYDYWGQGTQVTVSS :: high polyreactivity
QVQLVESGGGLVQAGVSLRLSCAASGSTFGRYTMGWYRQAPGKERELVAVITRGGDSTYYADSVKWRFTISRDNAKNTVYLQMNSLKPEDTAVYYCNAETNDWYYQAYLEVEYWGQGTQETVSS :: low polyreactivity
QVQLVESGGGLVQAGGSLRLSCAASGITFYPYAMGWYRQAPGKERELVAAISFSGGSTYYADSVKGRFTISRDNAKNTVYLQMNSLKPEDTAVYYCAADRRSGDDYWGQGTQVTVSS :: high polyreactivity
QVQLVESGGGLVQSGGSLRLSCAASGSTFKFYAMGWYRQAPGKEREFVAAITSSGDSTYYADSVKGRFTISRDNAKNTVYLQMNSLKPEDTAVYYCAARLRWRYSYDYWGQGTQVTVSS :: high polyreactivity

Answer with the recorded polyreactivity (PSR sort gate) of QVQLVESGGGLVQAGGSLRLSCAPSGFTFYTYAMGWYRQAPGKERELVAVISRSGGRTNYADSVKGRFTISRDNAKNTVYLQMNSLKPEDTAVYYCNRYDRQRSWSVGYDYWGQGTQVTVSS only.
high polyreactivity

Look up polyreactivity (PSR sort gate) of QVQLVESGGGLVQAGGSLRLSCAASGITFAVKAMGWSRQAPGKERELVAAISRSAGSTYYADSVKGRFTISRDNAKNTVYLQMNSLKPEDTAVYYCATALRYARSRNRFYYWGQGTQVTVST and report it.
high polyreactivity

Provide measured polyreactivity (PSR sort gate) value, entry: QVQLVESGGGLVQAGGSLRLSCAASGSTFNRYAMGWYRQAPGKERELVAAITSTGGTNYADSVKGRFTISLDNAKNTVYLQMYSLKPEDTAVYYCAKRWLRWRSNYWGQGTQVTVSS
high polyreactivity

Recall and state the measured polyreactivity (PSR sort gate) for QVQLVESGGGLVQAGGSLRLSCAASGSTFTYYAMGWYRQAPGKERELVAAITGRGGRTYYADSVKGRFTISRDNAKNSVYLQMNSLKREDTAVYYCNTVGLNYGYQYSNGYWGQGSQVTVSS .
high polyreactivity

Could you please provide reported polyreactivity (PSR sort gate) for QVQLVESGGGLVQAGGSLRLSCAASGYIFKFYTMGWYRQAPGKERELVAAISRSGGSTYYADSVKGRFTISRDNAKNTVYLQLNSLKPEDTAVYYCARPRTRQGDYWGQGSQVTVSS ? Thanks!
high polyreactivity

---

test: yeast display, Sf9 membrane polyspecificity reagent, FACS + sequencing; frameworks hold sequencing errors
READOUT_KIND: polyreactivity (PSR sort gate)

QVQLVESGGGLVQAGGSLRLSCAASGIIFRFYAMGWYRQAPGKERELVARIRSRGGSTYYADSVKGRFTISRDNAKNTVYLQMNSLKPEDTAVYYCAAGAGYPYYWGQGTQVTVSS :: high polyreactivity
QVQLVESGGGLVQAGGSLRLSCAASGIIFVYYDMGWYRQAPGKERELVASISRGGSTNYADSVKGRFTISRDNAKNTVYLQMNSLKPEDTAVYYCAAGSYSILVHLVRYYYWGQGTQVTVSS :: high polyreactivity
QVQLVESGGGLVQAGGSLRLSCAASGFTFAGYAMGWYRQAPGKERELVAAISWRGGSTYYADSVKGRFTISRDNAKNTVYLQMNSLKPEDTAVYYCAAASRKRTSREPLDYWGQGTQVTVSS :: high polyreactivity
QVQLVESGGGLVQAGGSLRLSCAASGRIFAGYTMGWYRPAPGKERELVAAIRSSGRTHYADSVKGRFTISRDNAKNTVYLQMYSLKPEDTAVYYCAARWTYTFAYRFDYWGQGTQVTVSS :: high polyreactivity
QVQLVESGGGLVQAGGSLRLSCAASGITFKWNDMGWYRQAPGKEREFVAAITGSTGSTFYAGSVKGRFTISRDNAKNTVYLQMNSLKPEDTAVYYCAAGPWFYYWGQGTQVTVSS :: low polyreactivity

Supply measured polyreactivity (PSR sort gate) of QVQLVESGGGLVQAGGSLRLSCAASGSTFQRYTMGWYRQPPGKERELVAAISQSGGRTYYADSVKGRFTISRDNAKNTVYLQMNSLKPEDTAVYYCNAASRTKFDYWGQGTQVTVTS in your reply.
high polyreactivity

Look up polyreactivity (PSR sort gate) of QVQLVESGGGLVQAGGSLRLSSASSRSTFLLNAMGWYRQEPGKERELVAAITWTGGSTYYADSVKGLFTISRDNANNNVYLQMNSLNQEDTAVYYCAAETYVTSYYYWGQGTQVTVSS and report it.
low polyreactivity

---

test: yeast display, Sf9 membrane polyspecificity reagent, FACS + sequencing; frameworks hold sequencing errors
READOUT_KIND: polyreactivity (PSR sort gate)

Previously resolved entries follow.
QVQLVESGGGLVQAGGSLRLTCAASGSTFGDYDMGWYRQAPGKERELVAAISNGGSTYYADSVKGRFTISRDNAKNTVYFQMNSLKPEDTAVYYCNADNVEIRSTYEYGRYLYGYWGQGTQVTVSS :: low polyreactivity
QVQLVESGGGLVQAGGSLRLSSAASGRIFYRYTMGWYRQAPGKERELVAAITRGSTNYADSVKGRFTISRDNAKNTVYLQMNSLKPDDTAVYYWAKAYSRTDRFSSPYYYYWGQGTQVTVSS :: high polyreactivity
KVQLVESGGGLVQARGSLRLSCAASGRIIRYYVMGWYRQAPGKERELVASISWRGTSTYYADSVKGRFTISRDNAKNTVYLQMNSLKPEDTAVYYCNAARPGKNYDSWGQGTQVTVSS :: high polyreactivity
QVQLVESGGGLVQAGGSLRLSCAASGGIFQWYAMGWYRQAPGKVREFVAAITRRGGSTYYAYSVKGRFTISRDNAKNTVYLQMNSLKPEDTAVYYCAARPWADFDYWGQGTQVTVSS :: low polyreactivity
QVQLVESGGGLVQAGGSLRLSCAASGFTFRYNAMGWYRQAPGKERELVAAITYRGGSTYYADSVKGRFTISRDNAKNTVYLQMNSLKPEDTAVYYCAAVGDLWGYYWGQGSQVTVSS :: low polyreactivity

Kindly indicate its recorded polyreactivity (PSR sort gate). Item: QVQLVESAGGLVQAGGSLRLSCAASGSIIYYNAMGWYRQAPGKERELVAAITGSGGSTYYADSVKGRFTISRDNAKNTVYLQMNSLKPEDTAVYYCAADYSLYGWWFRNDYWGQGTQVTVSS
low polyreactivity

---

test: yeast display, Sf9 membrane polyspecificity reagent, FACS + sequencing; frameworks hold sequencing errors
READOUT_KIND: polyreactivity (PSR sort gate)

Recorded results for 5 sequences are shown here.
QVQLVESGGGLVQAGGSLRLSCAASGSIFTYNAMGWYRQAPGKERELVASITWSGGSTYYADSVKGRFTISRDNAKNTVYLQMNSLKPEDTAVYYCAAKRVHGATGYWGQGTQVTVSS :: high polyreactivity
HVQIVESGRGLVPAGGSLRLSCAASGFIFIRYSMGWSRQAPGKERELVAVISSGGGSTDYADSVKGRFTISRDYAKNTVFLQMISLKPEDTAVYYCAADFLPTYDPYYFWGQGTQVSVSS :: low polyreactivity
QVQLVESGGGLVQAGGSLRLSCAASGRILGRYAMGWYRQAPGKERELVAAITSGGNTTYADSVKGRFTISRDNAKNTVYLQMNSLKPEDTAVYYCAAYSYTQLNLMDYWGQGSQVTVSS :: low polyreactivity
QVQLVESWGRLVQAGGSLRLSCAASGSTFTGNAMGWYRQAPGKERELVAVISSGASTNYADSVKGRFTISRDNAKNSVSLQMNSLKAEDSAVYYCAADSWDYDSRMDYWGQGTHVTVSS :: low polyreactivity
QLQLVESGGGLVQAGGSLRLSCAASGSTFHYYDMGWNRKATGKERELVAAISSGGDSTYYADSVKGRFTISRDNAKNTVYLQMNSLKPEDTAVYYCAAAVYYGQSVWYYYWGQGTQVTVSS :: high polyreactivity

Find the measured polyreactivity (PSR sort gate) of QDQLVESGGCLVQAGGSLRLSCAASGSTFRSNAMGWYRQAPGKERELVAAISRGGSTNYADSVKGRFTISRDNAKNTVYLQMNSLKTEDTAVYYCNADWDYRDFYDITYDYWGQGTQVTVSS and report it.
low polyreactivity

Give the measured polyreactivity (PSR sort gate) for QVQLVESGGGLVQAGGSLRLSCAASGSTFFYNAMGWSRQAPGKERELVAAIRFSGGSTRYADSVKGRFTISRDNAKNTVYLQMNSLKPEDTAVYYCNARGFRESIWYQYDYWGQGTQVTVSS
high polyreactivity

Output measured polyreactivity (PSR sort gate) for this item: QVQLVESGGGIVQAGGSLRLSCAASGRTFAGNAMGWYRQAPGKERELVAAISQGGGSTYYADSVKGRFTISRDNAKNTVYLQMNSLKPEDTAVYYCAAEIPRRWASFATLWYDYWGQGTQVTVSS
low polyreactivity

Hello, please tell me recorded polyreactivity (PSR sort gate) for this one: QVQLVESGGGLVQAGGSLRLSCAASGSIFQRYAMGWYRQAPGKEREFVAAISGRGGSTYYADSVKGRFTISRDNAKNTVYLQMNSLKPEDTAVYYCAADSSRFYGRPRYYYWGQGTQVTVSS
high polyreactivity

# return recorded polyreactivity (PSR sort gate) for input QVQLVESGGGLVQAGGSLRLSCAASGFTFTKNAMGWYRQAPGKERELVAAISRGGGRTYYADSVKGRFTISRDNAKNTVYLQMNSLKPEDTAVYYCNVDKVGPGYDYWGQGTQVTVSS
high polyreactivity

Specify reported polyreactivity (PSR sort gate) for the sequence shown: QVHLVESRGRLVQAGGSLRLSCAASGSIFEPNAMGWYRQAPGKEREFVAAISGSGGSTYYADSVKARFTISRDNAKNTVYLQMNSRNPEDTAVYYCATRGKRSYFRTFYYWGQATQVTVSS
high polyreactivity
